# study target: human CXCR4 (human, UniProt P61073 1-352)
# Sequence (P61073 whole entry): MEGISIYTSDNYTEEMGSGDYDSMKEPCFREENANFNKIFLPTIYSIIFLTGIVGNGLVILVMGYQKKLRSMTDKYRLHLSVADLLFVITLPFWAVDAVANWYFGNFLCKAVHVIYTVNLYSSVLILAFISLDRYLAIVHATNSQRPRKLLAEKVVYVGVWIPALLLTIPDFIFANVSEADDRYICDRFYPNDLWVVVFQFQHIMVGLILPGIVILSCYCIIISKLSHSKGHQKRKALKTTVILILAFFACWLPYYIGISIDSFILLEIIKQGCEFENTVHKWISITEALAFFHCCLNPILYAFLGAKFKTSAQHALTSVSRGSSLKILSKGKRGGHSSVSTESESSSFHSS
# measurement protocol: cell-based or functional assay
*1 amine or outer side, *2 acyl side, *3 side chain or, on linkers, in order; H or OH if unused. Bridges are numbered along the chain shown (N, C = ends). [ ]: non-standard residue; d: D form. N(2-Aminoethyl)Gly = O=C(CN(CCN[*:3])[*:1])[*:2]; 2Nal = N[C@@H](Cc1ccc2ccccc2c1)C(=O)O; Cit = NC(=O)NCCC[C@H](N)C(=O)O
Provide the reported IC50 (nM) Ca2+ assay (method 2) of each item.
State the answer as a number, implicitly in nM.

For cyclo(YRHCRG[dP]RR[2Nal]CYQK[dP]P) (disulfide 4-11; SMILES N=C(N)NCCC[C@@H]1NC(=O)[C@@H]2CSSC[C@H](NC(=O)[C@H](Cc3ccc4ccccc4c3)NC(=O)[C@H](CCCNC(=N)N)NC(=O)[C@H](CCCNC(=N)N)NC(=O)[C@H]3CCCN3C(=O)CNC1=O)C(=O)N[C@@H](Cc1ccc(O)cc1)C(=O)N[C@@H](CCC(N)=O)C(=O)N[C@@H](CCCCN)C(=O)N1CCC[C@@H]1C(=O)N1CCC[C@H]1C(=O)N[C@@H](Cc1ccc(O)cc1)C(=O)N[C@@H](CCCNC(=N)N)C(=O)N[C@@H](Cc1c[nH]cn1)C(=O)N2) [Example 70] the binder record lists IC50 (nM) Ca2+ assay (method 2) as 19.5

Sure, the documented IC50 (nM) Ca2+ assay (method 2) for cyclo(YRICRG[dP]RRYCYQK[dP]P) (disulfide 4-11; SMILES CC[C@H](C)[C@@H]1NC(=O)[C@H](CCCNC(=N)N)NC(=O)[C@H](Cc2ccc(O)cc2)NC(=O)[C@@H]2CCCN2C(=O)[C@H]2CCCN2C(=O)[C@H](CCCCN)NC(=O)[C@H](CCC(N)=O)NC(=O)[C@H](Cc2ccc(O)cc2)NC(=O)[C@@H]2CSSC[C@H](NC1=O)C(=O)N[C@@H](CCCNC(=N)N)C(=O)NCC(=O)N1CCC[C@@H]1C(=O)N[C@@H](CCCNC(=N)N)C(=O)N[C@@H](CCCNC(=N)N)C(=O)N[C@@H](Cc1ccc(O)cc1)C(=O)N2) [Example 147] is 0.17

Looking up RRWCYQKGYXGYGYRXCRGX (Cit at P16; disulfide Cys P4-Cys P17; backbone-cyclic via template Gly-DPro) [Example 157] , I see its IC50 (nM) Ca2+ assay (method 2) listed as 11.3

Measured IC50 (nM) Ca2+ assay (method 2), cyclo(YR[Cit]C[N(2-Aminoethyl)Gly]G[dP]RR[2Nal]CY[Cit]K[dP]P) (disulfide 4-11; SMILES N=C(N)NCCC[C@@H]1NC(=O)[C@H](CCCNC(=N)N)NC(=O)[C@H]2CCCN2C(=O)CNC(=O)CN(CCN)C(=O)[C@@H]2CSSC[C@H](NC(=O)[C@H](Cc3ccc4ccccc4c3)NC1=O)C(=O)N[C@@H](Cc1ccc(O)cc1)C(=O)N[C@@H](CCCNC(N)=O)C(=O)N[C@@H](CCCCN)C(=O)N1CCC[C@@H]1C(=O)N1CCC[C@H]1C(=O)N[C@@H](Cc1ccc(O)cc1)C(=O)N[C@@H](CCCNC(=N)N)C(=O)N[C@@H](CCCNC(N)=O)C(=O)N2) [Example 138] : 63
